# Procedure Details: toxicity towards warm-blooded animals, LD 50 per os on rat
# Condition Info: in vivo, po
Readout Type: LD50 (mg/kg)
Give just the numeric value; mg/kg need not be written.

Entry under test: CCC(C)N(CC)C(=O)c1ccc(Cl)c(Cl)c1 (stereo not shown) . Its LD50 was 930

###

# System: triticum vulgare L. (wheat)
# Procedure Details: activity on agrarian species, soil treatment one day after sowing
# Format: in vivo
# Condition Info: in vivo
Listed here are compounds together with their documented activity on N, 0-4 scale.
The answer should be written as a number, with no unit following it.

Sample answers from the record:
Entry under test: CCC(C)N(C(=O)c1cc(Cl)ccc1Cl)C(C)CC (stereo not shown) [PA412, 2,5-dichloro-N,N-di-sec.butyl-benzamide] . Its activity on N, 0-4 scale was 0

Entry under test: CCC(C)N(C(=O)c1cccc(I)c1)C(C)CC (stereo not shown) [PA491, 3-iodo-N,N-di-sec.butyl-benzamide] . Its activity on N, 0-4 scale was 0

Entry under test: CCC(C)N(C(=O)c1cccc(Br)c1)C(C)CC (stereo not shown) [PA337/3/Br, 3-bromo-N,N-di-sec.butyl-benzamide] . Its activity on N, 0-4 scale was 0

Entry under test: CCC(C)N(C(=O)c1ccc(Cl)c(Cl)c1Cl)C(C)CC (stereo not shown) . Its activity on N, 0-4 scale was 0

Entry under test: CCC(C)N(C(=O)c1ccc(Br)c(C)c1)C(C)CC (stereo not shown) . Its activity on N, 0-4 scale was 0

New cases:
Entry under test: CCC(C)N(C(=O)c1cc(Cl)c(Cl)cc1Cl)C(C)CC (stereo not shown) . Its activity on N, 0-4 scale was 0

Entry under test: CCN(CC)C(=O)c1ccc(Cl)c(Cl)c1 [PA61, 3,4-dichloro-N,N-diethyl-benzamide, reference compound] . Its activity on N, 0-4 scale was 1

Entry under test: CCC(C)N(C(=O)c1ccc(C)c(Cl)c1)C(C)CC (stereo not shown) . Its activity on N, 0-4 scale was 0

Entry under test: CCC(C)N(C(=O)c1c(Cl)cccc1Cl)C(C)CC (stereo not shown) [PA227, 2,6-dichloro-N,N-di-sec.butyl-benzamide] . Its activity on N, 0-4 scale was 0

Entry under test: CCCCN(C(=O)c1ccc(Cl)c(Cl)c1)C(C)CC (stereo not shown) . Its activity on N, 0-4 scale was 0

Entry under test: CCN(CC)C(=O)c1cc(Cl)cc(Cl)c1 [PA291, 3,5-dichloro-N,N-diethyl-benzamide, reference compound] . Its activity on N, 0-4 scale was 4
